GI50 by entry:
Tested on: CAKI-1
Experiment: NCI tumour cell line growth inhibition, 48 h
The source made the active and inactive calls. Cut-off read from the data, not from the text of the source: active = GI50 up to about 1.1 µM and inactive = higher.

Please review the entries below; each comes with its answer.
- molecule: "O=C1/C(=C\\c2ccc(O)cc2)CCC/C1=C/c1ccc(Cl)c(Cl)c1"
  systemUnderTest: "CAKI-1"
  GI50: "4.82 µM (inactive)"
- molecule: "COC(=O)c1c(C)cccc1CC1Cc2c(C)cccc2C1=O (stereo unspecified)"
  systemUnderTest: "CAKI-1"
  GI50: "33.4 µM (inactive)"
- molecule: "Cc1cc(C)nc(NS(=O)(=O)c2ccc(Nc3nncc(=O)n3N)cc2)n1"
  systemUnderTest: "CAKI-1"
  GI50: "16 µM (inactive)"
- molecule: "COc1ccc(/C(CCl)=C(\\Nc2ccccc2)c2ccc(OC)c(OC)c2)cc1OC"
  systemUnderTest: "CAKI-1"
  GI50: "> 100 µM (inactive)"
- molecule: "CSc1c(CC(=O)O)n(Cc2ccccc2)c2ccccc12"
  systemUnderTest: "CAKI-1"
  GI50: "> 100 µM (inactive)"
- molecule: "CCOC(=O)c1cc2c([N+](=O)[O-])c(N)ccc2s1"
  systemUnderTest: "CAKI-1"
  GI50: "> 100 µM (inactive)"
- molecule: "O=C(O)C1CCCCN1c1ccccc1[N+](=O)[O-] (stereo unspecified)"
  systemUnderTest: "CAKI-1"
  GI50: "> 100 µM (inactive)"
- molecule: "CC(C)c1[nH]nc(C(N)=O)c1/N=N/N(C)C"
  systemUnderTest: "CAKI-1"
  GI50: "16 µM (inactive)"

For the molecule O=C=C=P(c1ccccc1)(c1ccccc1)c1ccccc1 , what GI50 is on record?
59.4 µM (inactive)

For the molecule O=C(CNc1ccccc1C(=O)O)Nn1cnc2ccc(S(=O)(=O)Nc3ccccc3C(=O)O)cc2c1=O , what GI50 is on record?
> 100 µM (inactive)

For the molecule COc1ccc2c(c1O)-c1c(OC)c(OC)cc3c1[C@H](C2)[N+](C)(C)CC3 , what GI50 is on record?
> 100 µM (inactive)

Taken from ChEMBL document CHEMBL1201862.
